Ref: patent US20250059258A1

The entries below come with measured Kd values attached.
testTarget: Herceptin Fab with a kappa light chain and binding specificity for Her2/neu (from the monoclonal antibody trastuzumab)
protocolText: BLI (ForteBio), biotinylated ligand on sensor, 1:1 fit
measure: Kd (nM)

• affinity ligand SEQ ID NO: 93 (designed binder, biotinylated (AviTag system)) MGGGGSAAAGDEAQRWENQGAAYAARGDYDRAIEYYERALELDPNNAWAWWELGVAYAARGDFDRAIEYYERALELDPDDATVWSRLGHAYAARGDYDRAIEYYERALELDPVDETARYLLEHARRARQGQAGQGGGSGLNDIFEAQKIEWHECHHHHHH = 15
• affinity ligand SEQ ID NO: 84 (designed binder, biotinylated (AviTag system)) MGGGGSAAAGDEGGRWEGQGAAYAARGDYDRAIEYYERALELDPNNAWAWWDLGVAYAARGDYDRAIEYYERALELDPDDATAWSRLGHAYAARGDYDRAIEYYERALELDPEDETARYLLEHARRARQGQAGQGGGSGLNDIFEAQKIEWHECHHHHHH = 32
• affinity ligand SEQ ID NO: 87 (designed binder, biotinylated (AviTag system)) MGGGGSAAAGDEAQHWENQGAAYAARGDYDRAIEYYERALELDPNNAWAWWELGVAYAARGDYDRAIEYYERALELDPDDATVWSRLGHAYAARGDYDRAIEYYERALELDPEDETARYLLEHARRARQGQAGQGGGSGLNDIFEAQKIEWHECHHHHHH = 84
